List of pIC50 values.
tested_target: Human P2Y12 receptor (Homo sapiens)
Construct: expressed in transfected cells; host or cells: HEK cells
test_summary: Human P2Y12 receptor cell membrane binding assay with [3H] 2-Mes-ADP
reported_conditions: 1 nM [3H] 2-Mes-ADP, membranes of HEK cells expressing P2Y12 receptor; read-out: Binding activity (IC50)
pIC50: −log10 of the molar value.
reported_metric: pIC50

1. CCCc1cc2c(N3CCn4c(nnc4C(F)(F)F)C3)nc(N3CCc4sccc4C3)nc2s1 | 6.43
2. CCc1cc2c(N3CCc4c([nH]n(-c5ccccc5)c4=O)C3)nc(N3CCNC(=O)C3)nc2s1 | 4.67
3. CCCc1cc2c(N3CCn4c(nnc4C(F)(F)F)C3)nc(N3CCOCC3)nc2s1 | 7.21
4. CCCc1cc2c(N3CCn4c(nnc4C(F)(F)F)C3)nc(N3CCN(C)C(=O)C3)nc2s1 | 7.49
5. CCCc1cc2c(N3CCn4c(nnc4C(F)(F)F)C3)nc(N3Cc4ccccc4C3)nc2s1 | 6.29
6. CCCc1cc2c(N3CCn4c(nnc4C(F)(F)F)C3)nc(N3CCOC(=O)C3)nc2s1 | 6.87
7. CCc1cc2c(N3CCn4cc(C(F)(F)F)nc4C3)nc(OCC(O)CO)nc2s1 (stereo not shown) | 4.92
8. CCCc1cc2c(N3CCn4c(nnc4C(F)(F)F)C3)nc(NCCN3CSCC3=O)nc2s1 | 7.00
9. CCc1cc2c(N3CCn4c(nnc4C(F)(F)F)C3)nc(C(=O)NCC(=O)O)nc2s1 | 6.00
10. CCCc1cc2c(N3CCn4c(nnc4C(F)(F)F)C3)nc(C(=O)N3CCC(O)C3)nc2s1 (stereo not shown) | 5.96
11. CCCc1cc2c(N3CCn4c(nnc4C(F)(F)F)C3)nc(OCCN)nc2s1 | 6.40
12. CCCc1cc2c(N3CCn4c(nnc4C(F)(F)F)C3)nc(N3CCN(C(=O)OCC)CC3)nc2s1 | 6.66
13. CCCc1cc2c(N3CCn4c(nnc4C(F)(F)F)C3)nc(N3CC[C@H](NC(=O)c4ccccn4)C3)nc2s1 | 6.82
14. CCCc1cc2c(N3CCn4c(nnc4C(F)(F)F)C3)nc(N3CC(=NO)C(N)C3)nc2s1 (stereo not shown) | 7.15
15. CCCc1cc2c(N3CCn4c(nnc4C(F)(F)F)C3)nc(-c3nc(CCO)cs3)nc2s1 | 7.40
16. CCCc1cc2c(N3CCn4c(nnc4C(F)(F)F)C3)nc(NCCC(=O)OCC)nc2s1 | 6.87

###

tested_target: Human P2Y12 receptor (Homo sapiens, UniProt Q9H244)
Construct: expressed in transfected cells; host or cells: HEK cells
Sequence (Q9H244 whole entry): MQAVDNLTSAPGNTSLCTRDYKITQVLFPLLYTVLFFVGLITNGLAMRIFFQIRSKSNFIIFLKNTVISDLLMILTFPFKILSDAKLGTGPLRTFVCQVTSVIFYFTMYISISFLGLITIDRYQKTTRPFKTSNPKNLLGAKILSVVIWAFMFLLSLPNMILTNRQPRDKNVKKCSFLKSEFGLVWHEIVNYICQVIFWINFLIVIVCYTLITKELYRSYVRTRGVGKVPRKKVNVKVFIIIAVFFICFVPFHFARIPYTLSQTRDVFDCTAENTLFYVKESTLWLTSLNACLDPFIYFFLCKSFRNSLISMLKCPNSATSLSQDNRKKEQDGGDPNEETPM
test_summary: Human P2Y12 receptor cell membrane binding assay with [3H] 2-Mes-ADP
reported_conditions: 1 nM [3H] 2-Mes-ADP, membranes of HEK cells expressing P2Y12 receptor; read-out: Binding activity (IC50)
List of IC50 values.
reported_metric: IC50 (nM)

1) CCCc1cc2c(N3CCn4c(nnc4C(F)(F)F)C3)nc(N3CC[C@H](C(=O)NO)C3)nc2s1 [Example 1-89] | 55
2) CCCc1cc2c(N3CCn4c(nnc4C(F)(F)F)C3)nc(N3CCN(C4CCCC4)CC3)nc2s1 [Example 1-40] | 200
3) CCCc1cc2c(N3CCn4c(nnc4C(F)(F)F)C3)nc(OCCCO)nc2s1 [Example 3-10] | 140
4) CCCc1cc2c(N3CCc4c(nc(C(F)(F)F)nc4C(F)(F)F)C3)nc(N3CCNC(=O)C3)nc2s1 [Example 6-33] | 2370
5) CCCc1cc2c(N3CCn4c(nnc4C(F)(F)F)C3)nc(Cc3nc(C(=O)OCC)cs3)nc2s1 [Example 4-57] | 240
6) CCCc1cc2c(N3CCn4c(nnc4C(F)(F)F)C3)nc(N3CCC[C@@H]3C(=O)O)nc2s1 [Example 1-54] | 143
7) CCCc1cc2c(N3CCc4c(nc(C)nc4C(F)(F)F)C3)nc(N3CCNC(=O)C3)nc2s1 [Example 6-36] | 640
8) CCc1cc2c(N3CCn4c(C)nnc4C3)nc(OCC(O)CO)nc2s1 (centres unmarked) [Example 6-13] | 2460
